These data points were gathered from ChEMBL document CHEMBL5223082.

experiment: Induction of hemolysis in human erythrocytes incubated for 1 hr by microtiter plater reader analysis; type: toxicity, cell-based, Erythrocyte
Recorded measurements of HC50 at 1 h, one per entry
The answer is to be given in µM; state only the numeric part.

[Q] Name the recorded HC50 at 1 h of the molecule listed here: CCCCCCCCCCCCCCNC(=O)C[N+](C)(C)CCCNC(=O)c1ccc(CN[C@@]2(C)C[C@H](O[C@H]3[C@H](Oc4c5cc6cc4Oc4ccc(cc4Cl)[C@@H](O)[C@@H](NC(=O)[C@@H](CC(C)C)NC)C(=O)N[C@@H](CC(N)=O)C(=O)N[C@H]6C(=O)N[C@H]4C(=O)N[C@H](C(=O)N[C@H](C(=O)O)c6cc(O)cc(O)c6-c6cc4ccc6O)[C@H](O)c4ccc(c(Cl)c4)O5)O[C@H](CO)[C@@H](O)[C@@H]3O)O[C@@H](C)[C@H]2O)cc1
[A] 35

Shift focus to the following entry.
[Q] Input CCCCCCCCCCCCNC(=O)C[N+](C)(C)CCCNC(=O)c1ccc(CN[C@@]2(C)C[C@H](O[C@H]3[C@H](Oc4c5cc6cc4Oc4ccc(cc4Cl)[C@@H](O)[C@@H](NC(=O)[C@@H](CC(C)C)NC)C(=O)N[C@@H](CC(N)=O)C(=O)N[C@H]6C(=O)N[C@H]4C(=O)N[C@H](C(=O)N[C@H](C(=O)O)c6cc(O)cc(O)c6-c6cc4ccc6O)[C@H](O)c4ccc(c(Cl)c4)O5)O[C@H](CO)[C@@H](O)[C@@H]3O)O[C@@H](C)[C@H]2O)cc1 , output reported HC50 at 1 h.
[A] 72
